Ref: patent EP4667466A1

inhibition at 1 µM for assorted compounds
Target Or System: MLLT1 (Homo sapiens, UniProt Q03111)
Construct: endogenous in cells; host or cells: MV4-11 (ATCC CRL-9591)
Sequence (Q03111 whole entry): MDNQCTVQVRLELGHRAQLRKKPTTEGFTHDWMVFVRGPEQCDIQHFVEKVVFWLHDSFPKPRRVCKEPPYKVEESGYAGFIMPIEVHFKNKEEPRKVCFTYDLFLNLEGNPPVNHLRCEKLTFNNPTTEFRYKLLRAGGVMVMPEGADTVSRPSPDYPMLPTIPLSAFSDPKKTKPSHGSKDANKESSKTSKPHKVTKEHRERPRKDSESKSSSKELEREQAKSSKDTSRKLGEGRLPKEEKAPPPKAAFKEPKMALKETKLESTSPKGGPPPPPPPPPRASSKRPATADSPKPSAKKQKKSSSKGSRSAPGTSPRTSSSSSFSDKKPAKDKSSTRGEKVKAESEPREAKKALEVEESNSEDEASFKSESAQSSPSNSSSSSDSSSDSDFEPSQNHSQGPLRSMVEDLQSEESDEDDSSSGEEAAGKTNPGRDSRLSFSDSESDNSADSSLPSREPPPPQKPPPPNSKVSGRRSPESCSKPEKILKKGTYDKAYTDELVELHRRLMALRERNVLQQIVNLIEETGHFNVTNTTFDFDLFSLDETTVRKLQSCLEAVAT
Assay: MLLT1 degradation assay (JESS automated chemiluminescent detection) in MV4-11 cells
Assay type: cell-based
Experimental Parameters: 1 µM, 24h, with respect to DMSO control

A selection of reference data follows.
Cc1nn(CCCCCCC#Cc2cccc3c2CN(C2CCC(=O)NC2=O)C3=O)c2cc(C(=O)Nc3cc4[nH]c([C@H]5CCCN5C)cc4cn3)ccc12 (stereo partly shown) = ≥ 75%
Cc1nn(CCCCCCCC=C(Cl)c2ccc3c(c2)n(C)c(=O)n3C2CCC(=O)NC2=O)c2cc(C(=O)Nc3cc4[nH]c([C@H]5CCCN5C)cc4cn3)ccc12 (mixture of isomers) = ≥ 75%

// inhibition at 1 µM lookup, compound = Cc1nn(CCCCC#Cc2cccc3c2CN(C2CCC(=O)NC2=O)C3=O)c2cc(C(=O)Nc3cc4[nH]c([C@H]5CCCN5C)cc4cn3)ccc12 (stereo partly shown) , result: 50 to 75%

Lab note: measured inhibition at 1 µM of Cc1nn(C2CCC(CCCC#Cc3cccc4c3CN(C3CCC(=O)NC3=O)C4=O)CC2)c2cc(C(=O)Nc3cc4[nH]c([C@H]5CCCN5C)cc4cn3)ccc12 (stereo partly shown) was ≥ 75%

What the record says about Cc1nn(CCCCCC#Cc2cccc3c2C(=O)N(C2CCC(=O)NC2=O)C3=O)c2cc(C(=O)Nc3cc4[nH]c([C@H]5CCCN5C)cc4cn3)ccc12 (stereo partly shown) : inhibition at 1 µM is ≥ 75%

For Cc1nn(CCCCCC#Cc2cccc3c2n(C)c(=O)n3C2CCC(=O)NC2=O)c2cc(C(=O)Nc3cc4[nH]c([C@H]5CCCN5C)cc4cn3)ccc12 (stereo partly shown) the compound record lists inhibition at 1 µM as 50 to 75%

Input Cc1nn(CCCCCCCC#Cc2cccc3c2CN(C2CCC(=O)NC2=O)C3=O)c2cc(C(=O)Nc3cc4[nH]c([C@H]5CCCN5C)c(Cl)c4cn3)ccc12 (stereo partly shown) . Output inhibition at 1 µM: ≥ 75%
